- Tested on: JAK3(JH1domain-catalytic);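 further: KINOMEscan kinase panel screen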
- Test conditions: concentration: 1 μM, replicates: in singlicate; n = 1
Listing of recorded %Inh by entry.
The reply should contain only the number, in %.

Solved entries (count: 3):
INSERT INTO assay_data (compound, units, recorded_number) VALUES
  ('NS(=O)(=O)c1cccc(-c2ccc3ncc(N4CCOCC4)nc3c2)c1 [GSK1535721]', '%', 0),
  ('Cc1ccc(C(=O)NCC(N)=O)cc1-n1c(C)cc(OCc2ccc(F)cc2F)c(Br)c1=O', '%', 4),
  ('COc1cc2c(cc1OC[C@@H](O)CO)ncc1c3ccc(C#N)cc3[nH]c21', '%', 59);

Please turn your attention to the following entry.
Need %Inh, item Cc1ccc(NC(=O)c2ccnc(N3CCN(C)CC3)c2)cc1-c1ccc(C(=O)NCC2CC2)cc1 [GW775604]
0
